- Tested on: antibiotic resistant E. coli (E.C. 324)
- Format: cell-based
- condition-notes: 64 ppm; Gram Neg.; 6 h, 37° C., aerobic
Where a SMILES comes first, the peptide text is derived from it. Bridges are numbered along the chain shown (N, C = ends). [ ]: non-standard residue; d: D form. The star is where a group is joined. Ileψ(thiazoline)Cys = CC[C@H](C)[C@H](N)C1=N[C@H](C(=O)*)CS1; dOrn = NCCC[C@@H](N)C(=O)O
property-measured: Growth of E.C. 324 in the presence of the test compound

| molecule | observed-measurement |
| --- | --- |
| CCC[C@@H]1C[C@@H](C(=O)N[C@@H]([C@H]2O[C@H](SC)[C@H](O)[C@@H](O)[C@H]2O)[C@@H](C)O)N(C)C1 | + |
| CN(C)[C@@H]1C(O)=C(C(N)=O)C(=O)[C@@]2(O)C(O)=C3C(=O)c4c(O)ccc(Cl)c4[C@@](C)(O)[C@H]3C[C@@H]12 | - |
| CC[C@H]1OC(=O)C[C@@H](O)[C@H](C)[C@@H](O[C@@H]2O[C@H](C)[C@@H](O[C@H]3C[C@@](C)(O)[C@@H](O)[C@H](C)O3)[C@H](N(C)C)[C@H]2O)[C@@H](CC=O)C[C@@H](C)C(=O)/C=C/C(C)=C/[C@@H]1CO[C@@H]1O[C@H](C)[C@@H](O)[C@@H](OC)[C@H]1OC | + |
| CC1(C)S[C@@H]2[C@H](NC(=O)Cc3ccccc3)C(=O)N2[C@H]1C(=O)O | - |
| CC[C@H](C)[C@H](N)C1=N[C@H](C(=O)N[C@@H](CC(C)C)C(=O)N[C@H](CCC(=O)O)C(=O)N[C@H](C(=O)N[C@H]2CCCCNC(=O)[C@H](CC(N)=O)NC(=O)[C@@H](CC(=O)O)NC(=O)[C@H](Cc3cnc[nH]3)NC(=O)[C@@H](Cc3ccccc3)NC(=O)[C@H]([C@@H](C)CC)NC(=O)[C@@H](CCCN)NC2=O)[C@@H](C)CC)CS1 [Bacitracin] ({Ileψ(thiazoline)Cys}-L[dE]IK[dOrn]I[dF]H[dD]N; lactam 4-C) | + |

====

- Test system: Bacteroides fragilis (Bf)
- assay-overview: Antimicrobial growth inhibition, Bf
- Assay type: cell-based
- condition-notes: 6.4 ppm; Anaerobic; 6 h, 37° C.
property-measured: Growth of Bf in the presence of the test compound

| compound | observed-measurement |
| --- | --- |
| Oc1ccc(Cl)cc1C1=Nc2cc(Cl)c(Cl)cc2NC1c1cc(Cl)ccc1O (stereo not shown) | - |
| CC1(C)S[C@@H]2[C@H](NC(=O)Cc3ccccc3)C(=O)N2[C@H]1C(=O)O | + |
| CC[C@H]1OC(=O)C[C@@H](O)[C@H](C)[C@@H](O[C@@H]2O[C@H](C)[C@@H](O[C@H]3C[C@@](C)(O)[C@@H](O)[C@H](C)O3)[C@H](N(C)C)[C@H]2O)[C@@H](CC=O)C[C@@H](C)C(=O)/C=C/C(C)=C/[C@@H]1CO[C@@H]1O[C@H](C)[C@@H](O)[C@@H](OC)[C@H]1OC | - |
| CC[C@H]1OC(=O)[C@H](C)[C@@H](O[C@H]2C[C@@](C)(OC)[C@@H](O)[C@H](C)O2)[C@H](C)[C@@H](O[C@@H]2O[C@H](C)C[C@H](N(C)C)[C@H]2O)[C@](C)(O)C[C@@H](C)C(=O)[C@H](C)[C@@H](O)[C@]1(C)O | + |
